# Test system: DU-145 prostate
# Assay Protocol: NCI tumour cell line growth inhibition, 48 h
Assay Metric: TGI

The reported value for CCOC(=O)/C=C(/C(=O)OCC)n1ccc(N)nc1=O in terms of TGI is > 100 µM

get_value(item= CCC1(C(=O)OC(C)(C)C)OC12C(C)CCCC2C (centres undefined) , readout=TGI) returns > 100 µM

The recorded TGI for N#C/C(=C/N1CCN(C(=O)c2ccco2)C1=S)C(=O)c1ccccc1 is > 100 µM

Lab book: TGI of COc1ccc2c(O)cc3c(c2c1)[C@H](CCl)CN3C(=O)c1cc2cc(NC(=O)CCN3CCOCC3)ccc2[se]1 noted as 0.137 µM

The reported value for Cc1cc(I)cc(CN(C)CCCN2CCOCC2)c1O in terms of TGI is > 100 µM

For CCC(C#N)NC(=O)NC(C#N)CC (centres undefined) the molecule record lists TGI as > 100 µM

Value of TGI reported for the molecule O=C(/C=C/c1cc(CN2CCOCC2)c(O)c2ncccc12)c1cc(CN2CCOCC2)c(O)c2ncccc12 is > 100 µM

Entry Cc1ccc2nc(Cl)c(/C=N/N3C(=O)/C(=C/c4ccccc4S)N=C3c3ccccc3)cc2c1 , TGI reported as > 100 µM

The molecule listed as Nc1nc(SN=Nc2ccc(S(N)(=O)=O)cc2)c2[nH]cnc2n1 shows TGI equal to > 94.8 µM

---

# Test system: OVCAR-8 ovarian
# Assay Protocol: NCI tumour cell line growth inhibition, 48 h; in the data active = GI50 below about 0.43 µM; inactive = the rest
Select the matching outcome among Y (active), N (inactive)

                                  structure     study_target  classification
0  Cc1ccc(S(=O)(=O)NCCNc2nccc(-c3c(-c4ccc(F)cc4)nc4sccn34)n2)cc1  OVCAR-8 ovarian               N
1  COc1ccc2c(O)cc3c(c2c1)[C@H](CCl)CN3C(=O)c1cc2cc(NC(=O)CCN3CCOCC3)ccc2[se]1  OVCAR-8 ovarian               Y
2  N.N.N.N.[Cl-].[Co+3].[N-]=[N+]=[N-].[N-]=[N+]=[N-]  OVCAR-8 ovarian               N

What outcome does the record of this test show for O=[N+]([O-])c1ccc2c(c1)C(c1ccccc1Cl)=Nc1cn[nH]c1N2 ?
N

---

# System: NCI-H23 lung
# Assay Protocol: NCI tumour cell line growth inhibition, 48 h; in the data active means GI50 below about 0.43 µM; inactive means the rest
Select the matching outcome among yes for active, no for inactive

In [3]: df
Out[3]:
                                   compound  classification
0  COc1ccc(-c2ccc(/C=N/n3c(C)n[nH]c3=S)o2)c([N+](=O)[O-])c1              no
1  COc1ccc2c(O)cc3c(c2c1)[C@H](CCl)CN3C(=O)c1cc2cc(NC(=O)CCN3CCOCC3)ccc2[se]1             yes
2  Nc1nc(SN=Nc2ccc(S(N)(=O)=O)cc2)c2[nH]cnc2n1              no
3  NC(CS/C(Cl)=C/Cl)C(=O)O (stereo not given)              no

From here, focus on the item given below.
What is the recorded call for this compound in the test? COCCOc1cnc2ccn([C@H](C)c3nnc4c(F)cc(-c5cnn(C)c5)cn34)c(=O)c2c1
no

// provenance: PubChem BioAssay (NCI)
